- SYSTEM: GST-Bc1-2 (Homo sapiens)
- ASSAY METHOD TEXT: Time Resolved-Fluorescence Resonance Energy Transfer (TR-FRET) Bcl-2 binding assay with F-Bak peptide probe
- CONDITION LABEL: GST-Bcl-2 1 nM, F-Bak probe 100 nM, Tb-anti-GST 1 nM; '<' = below limit of detection; read-out: TR-FRET Bcl-2 Binding Ki
The entries below are paired with their reported pKi.
Interpret pKi as the negative base-10 log of the concentration measured in mol/L.

Use these answered entries as a reference point.
{"MOLECULE": "CC1(C)CCC(CN2CCN(c3ccc(C(=O)NS(=O)(=O)c4cnc(OCC5CCOCC5)c(S(C)(=O)=O)c4)c(Oc4cnc5[nH]ccc5c4)c3)CC2)=C(c2ccc(Cl)cc2)C1", "pKi": 8.92}
{"MOLECULE": "CC(C)N1CCC(Nc2ccc(S(=O)(=O)NC(=O)c3ccc(N4CCN(CC5=C(c6ccc(Cl)cc6)CC(C)(C)CC5)CC4)cc3Oc3cnc4[nH]ccc4c3)cc2[N+](=O)[O-])CC1", "pKi": 9.86}
{"MOLECULE": "CC1(C)CCC(CN2CCN(c3ccc(C(=O)NS(=O)(=O)c4cnc(NC5CCN(C6CCOCC6)CC5)c(Br)c4)c(Oc4cnc5[nH]ccc5c4)c3)CC2)=C(c2ccc(Cl)cc2)C1", "pKi": 10.04}

Fill blank: measured pKi of the molecule CC1(C)CCC(CN2CCN(c3ccc(C(=O)NS(=O)(=O)c4cnc(OCC5COCCO5)c(Br)c4)c(Oc4cnc5[nH]ccc5c4)c3)CC2)=C(c2ccc(Cl)cc2)C1 (centres unmarked) is ____.
10.68

----------
- SYSTEM: GST-Bc1-2 (Homo sapiens, UniProt P10415)
- Sequence (P10415 whole entry): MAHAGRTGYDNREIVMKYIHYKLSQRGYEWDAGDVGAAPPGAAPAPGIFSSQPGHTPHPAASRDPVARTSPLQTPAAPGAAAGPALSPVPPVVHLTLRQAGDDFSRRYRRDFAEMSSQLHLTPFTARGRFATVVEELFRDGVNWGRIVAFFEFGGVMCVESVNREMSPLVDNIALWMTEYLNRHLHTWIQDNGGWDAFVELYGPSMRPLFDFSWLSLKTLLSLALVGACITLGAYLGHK
- ASSAY METHOD TEXT: Time Resolved-Fluorescence Resonance Energy Transfer (TR-FRET) Bcl-2 binding assay with F-Bak peptide probe
- CONDITION LABEL: GST-Bcl-2 1 nM, F-Bak probe 100 nM, Tb-anti-GST 1 nM; '<' = below limit of detection; read-out: TR-FRET Bcl-2 Binding Ki
pKi: −log10 of the molar value.
Param threshold (10) applies to pKi; output y when value >= threshold, n when value < threshold.

Observe how each entry below is paired with its result.
{"COMPOUND": "O=C(NS(=O)(=O)c1ccc(NCC2CCOCC2)c([N+](=O)[O-])c1)c1ccc(N2CCN(Cc3ccccc3-c3ccc(Cl)cc3)CC2)cc1Oc1ccc2[nH]ccc2c1", "ASSIGNED LABEL": "n"}
{"COMPOUND": "CN1CCOC(CNc2ccc(S(=O)(=O)NC(=O)c3ccc(N4CCN(CC5=C(c6ccc(Cl)cc6)CC(C)(C)CC5)CC4)cc3Oc3cnc4[nH]ccc4c3)cc2[N+](=O)[O-])C1 (stereo not shown)", "ASSIGNED LABEL": "y"}

In plain terms: is recorded pKi at least 10 for CN(C)CC(=O)N1CCO[C@H](COc2ncc(S(=O)(=O)NC(=O)c3ccc(N4CCN(CC5=C(c6ccc(Cl)cc6)CC(C)(C)CC5)CC4)cc3Oc3cnc4[nH]ccc4c3)cc2Cl)C1 ?
y

In plain terms: is recorded pKi at least 10 for CC1(C)CCC(CN2CCN(c3ccc(C(=O)NS(=O)(=O)c4ccc(Cl)c([N+](=O)[O-])c4)c(Oc4cnc5[nH]ccc5c4)c3)CC2)=C(c2ccc(Cl)cc2)C1 ?
n

In plain terms: is recorded pKi at least 10 for CC1(C)CCC(CN2CCN(c3ccc(C(=O)NS(=O)(=O)c4ccc(N[C@H]5CCN(C6CCOC(C)(C)C6)C5)c([N+](=O)[O-])c4)c(Oc4cnc5[nH]ccc5c4)c3)CC2)=C(c2ccc(Cl)cc2)C1 (stereo partly shown) ?
y

In plain terms: is recorded pKi at least 10 for CC1(C)CCC(CN2CCN(c3ccc(C(=O)NS(=O)(=O)c4ccc(OCc5ccoc5)c([N+](=O)[O-])c4)c(Oc4cnc5[nH]ccc5c4)c3)CC2)=C(c2ccc(Cl)cc2)C1 ?
y

In plain terms: is recorded pKi at least 10 for CC1(C)CCC(CN2CCN(c3ccc(C(=O)NS(=O)(=O)c4ccc(OCC5CCOC(C)(C)C5)c([N+](=O)[O-])c4)c(Oc4cnc5[nH]ccc5c4)c3)CC2)=C(c2ccc(Cl)cc2)C1 (stereo not shown) ?
y

In plain terms: is recorded pKi at least 10 for CC1(C)CCC(CN2CCN(c3ccc(C(=O)NS(=O)(=O)c4ccc(OC[C@H]5CC[C@H](O)CC5)c(Cl)c4)c(Oc4cnc5[nH]ccc5c4)c3)CC2)=C(c2ccc(Cl)cc2)C1 ?
y

In plain terms: is recorded pKi at least 10 for COCCNc1ccc(S(=O)(=O)NC(=O)c2ccc(N3CCN(CC4=C(c5ccc(Cl)cc5)CC(C)(C)CC4)CC3)cc2Oc2ccc3[nH]ccc3c2)cc1S(=O)(=O)C(F)(F)F ?
n

In plain terms: is recorded pKi at least 10 for CC1(C)CCC(CN2CCN(c3ccc(C(=O)NS(=O)(=O)c4ccc(OC[C@H]5CC[C@H](N6CCOCC6)CC5)c(Cl)c4)c(Oc4cnc5[nH]ccc5c4)c3)CC2)=C(c2ccc(Cl)cc2)C1 ?
y

In plain terms: is recorded pKi at least 10 for CC1(C)CCC(CN2CCN(c3ccc(C(=O)NS(=O)(=O)c4ccc(NC[C@H]5CCN(C6CCOCC6)C5)c([N+](=O)[O-])c4)c(Oc4cnc5[nH]ccc5c4)c3)CC2)=C(c2ccc(Cl)cc2)C1 ?
y

In plain terms: is recorded pKi at least 10 for CC1(C)CCC(CN2CCN(c3ccc(C(=O)NS(=O)(=O)c4cnc(OC[C@H]5CC[C@@](O)(CO)CC5)c(Cl)c4)c(Oc4cnc5[nH]ccc5c4)c3)CC2)=C(c2ccc(Cl)cc2)C1 ?
y

In plain terms: is recorded pKi at least 10 for CC1(C)CCC(CN2CCN(c3ccc(C(=O)NS(=O)(=O)c4ccc(NCC5COCCN5C5CCOCC5)c([N+](=O)[O-])c4)c(Oc4cnc5[nH]ccc5c4)c3)CC2)=C(c2ccc(Cl)cc2)C1 (stereo not shown) ?
y

In plain terms: is recorded pKi at least 10 for CC1(C)CCC(CN2CCN(c3ccc(C(=O)NS(=O)(=O)c4ccc(NC5CCC(N6CCC(F)(F)C6)CC5)c([N+](=O)[O-])c4)c(Oc4cnc5[nH]ccc5c4)c3)CC2)=C(c2ccc(Cl)cc2)C1 (stereo not shown) ?
y

In plain terms: is recorded pKi at least 10 for CO[C@H]1CC[C@@H](CNc2ccc(S(=O)(=O)NC(=O)c3ccc(N4CCN(CC5=C(c6ccc(Cl)cc6)CC(C)(C)OC5)CC4)cc3Oc3cnc4[nH]ccc4c3)cc2[N+](=O)[O-])CC1 ?
y

----------
- SYSTEM: GST-Bc1-2 (Homo sapiens)
- ASSAY METHOD TEXT: Time Resolved-Fluorescence Resonance Energy Transfer (TR-FRET) Bcl-2 binding assay with F-Bak peptide probe
- CONDITION LABEL: GST-Bcl-2 1 nM, F-Bak probe 100 nM, Tb-anti-GST 1 nM; '<' = below limit of detection; read-out: TR-FRET Bcl-2 Binding Ki
The entries below are paired with their reported Ki.
Report the figure in nM without appending any unit label.

Use these answered entries as a reference point.
{"MOLECULE": "CC1(C)CCC(CN2CCN(c3ccc(C(=O)NS(=O)(=O)c4ccc5ccccc5c4)c(Oc4cnc5[nH]ccc5c4)c3)CC2)=C(c2ccc(Cl)cc2)C1", "SYSTEM": "GST-Bc1-2 (Homo sapiens)", "UNIT TAG": "nM", "Ki": 2.8}
{"MOLECULE": "CC1(C)CCC(CN2CCN(c3ccc(C(=O)NS(=O)(=O)c4ccc(NCC5CCC(C)(C#N)CC5)c([N+](=O)[O-])c4)c(Oc4cnc5[nH]ccc5c4)c3)CC2)=C(c2ccc(Cl)cc2)C1 (stereo not shown)", "SYSTEM": "GST-Bc1-2 (Homo sapiens)", "UNIT TAG": "nM", "Ki": 0.024}
{"MOLECULE": "CC1(C)CC(c2ccc(Cl)cc2)=C(CN2CCN(c3ccc(C(=O)NS(=O)(=O)c4ccc(NCC5CCOCC5)c(S(=O)(=O)C(F)(F)F)c4)c(Oc4cnc5[nH]ccc5c4)c3)CC2)CO1", "SYSTEM": "GST-Bc1-2 (Homo sapiens)", "UNIT TAG": "nM", "Ki": 0.012}
{"MOLECULE": "CC1(C)CCC(CN2CCN(c3ccc(C(=O)NS(=O)(=O)c4cnc(O[C@@H]5CCN(CC(F)F)C5)c(Cl)c4)c(Oc4cnc5[nH]ccc5c4)c3)CC2)=C(c2ccc(Cl)cc2)C1", "SYSTEM": "GST-Bc1-2 (Homo sapiens)", "UNIT TAG": "nM", "Ki": 0.134}
{"MOLECULE": "COCCOc1ncc(S(=O)(=O)NC(=O)c2ccc(N3CCN(CC4=C(c5ccc(Cl)cc5)CC(C)(C)CC4)CC3)cc2Oc2cnc3[nH]ccc3c2)cc1Cl", "SYSTEM": "GST-Bc1-2 (Homo sapiens)", "UNIT TAG": "nM", "Ki": 0.19}

For the next question, use this molecule.
Fill blank: measured Ki of the molecule CC1(C)CCC(CN2CCN(c3ccc(C(=O)NS(=O)(=O)c4ccc(NC5CCC(NC6CC6(F)F)CC5)c([N+](=O)[O-])c4)c(Oc4cnc5[nH]ccc5c4)c3)CC2)=C(c2ccc(Cl)cc2)C1 (stereo not shown) is ____.
0.023

Entry source: patent US8580794B2
